# experiment.description: in vitro
# condition.summary: mouse, liver microsomes
experimental.endpoint: microsomal CLint at 1 μg/mL (µL/min/mg)
Report the value in µL/min/mg with no unit label.

>  <molecule>
CCNc1nc2c(c(N3CC(=O)Nc4cc(OC)ccc43)n1)CCC2

>  <unit.abbreviation>
µL/min/mg

>  <microsomal CLint at 1 μg/mL>
109

$$$$

Moving on to another molecule below.
// microsomal CLint at 1 μg/mL value for COc1ccc2c(c1)NC(=O)CN2c1nc(NC2CC2)nc2c1CCC2 [Compound 12j] : 51

* * *

# experiment.description: Pharmacokinetic evaluation of 12k in mice
# Type: in vivo, NSG mice
# condition.summary: female, mouse, plasma; oral (10 mg/kg), NSG mice
experimental.endpoint: bioavailability (%)
Respond with the bare value in %.

Reported bioavailability ( CNc1nc2c(c(N3CC(=O)Nc4cc(OC)ccc43)n1)CCC2 [Compound 12k] ) = 2.02

* * *

# experiment.description: Pharmacokinetic evaluation of 12k in mice
# Format: in vivo, NSG mice
# condition.summary: female, NSG, mouse, plasma, intravenous, 4 mg/kg, text b345; read-out: in vivo half-life
experimental.endpoint: half-life (h)
The reply should be a number in h, with the unit left off.

Looking up CNc1nc2c(c(N3CC(=O)Nc4cc(OC)ccc43)n1)CCC2 [Compound 12k] , I found its half-life recorded as 3.97

* * *

# System: A549
# experiment.description: cells
# condition.summary: Homo sapiens, A549, read-out: IC50 ± SEM (nM) A549
experimental.endpoint: IC50
A complete answer gives the number followed by the unit.

Reported IC50 ( "COc1ccc2c(c1)NC(=O)CN2c1nc(C)nc2c1CCC2" ) = 4.5 nM

* * *

# experiment.description: in vivo
# condition.summary: male, NSG, mouse, brain/plasma, iv, 4 mg/kg
experimental.endpoint: Kp at 1 h

Data point: CNc1nc2c(c(N3CC(=O)Nc4cc(OC)ccc43)n1)CCC2 [Compound 12k] ; Kp at 1 h = 0.45

* * *

# experiment.description: Pharmacokinetic evaluation of 12k in mice
# Format: in vivo, NSG mice
# condition.summary: female, mouse, plasma; intravenous (4 mg/kg), NSG mice
experimental.endpoint: Tmax (min)
Use min as the unit, but write only the number.

// sample CNc1nc2c(c(N3CC(=O)Nc4cc(OC)ccc43)n1)CCC2 [Compound 12k] , its Tmax was 5

* * *

# System: human melanoma and breast cancer cell lines
# experiment.description: Cytotoxicity, all tested cell lines of Table 1
# Format: cell-based
# condition.summary: Homo sapiens, melanoma and breast lines of Table 1; read-out: IC50 values, range over all tested cell lines
Reported IC50 values are given for each entry in this list.

Example entries begin here.
>  <input.smiles>
CCNc1nc2c(c(N3CC(=O)Nc4cc(OC)ccc43)n1)CCC2

>  <experimental.endpoint>
IC50

>  <experimental.result>
0.0004 to 0.026 µM

$$$$
>  <input.smiles>
COc1ccc2c(c1)NC(=O)CN2c1cc(C)nc2cccnc12

>  <experimental.endpoint>
IC50

>  <experimental.result>
0.013 to 0.024 µM

$$$$
>  <input.smiles>
COc1ccc2c(c1)NC(=O)CN2c1nc(Cl)nc2c1CCC2

>  <experimental.endpoint>
IC50

>  <experimental.result>
0.0004 to 0.026 µM

$$$$
>  <input.smiles>
COc1ccc2c(c1)NC(=O)CN2c1nc(Cl)nc2c1COC2

>  <experimental.endpoint>
IC50

>  <experimental.result>
0.019 to 0.037 µM

$$$$
>  <input.smiles>
CCNc1nc(N2CC(=O)Nc3cc(OC)ccc32)c2ncccc2n1

>  <experimental.endpoint>
IC50

>  <experimental.result>
0.0004 to 0.026 µM

$$$$

Value of measured IC50 for the entry "CCNc1nc(N2CC(=O)Nc3cc(OC)ccc32)c2cccnc2n1" : 0.0004 to 0.026 µM

Form field IC50, entry "COc1ccc2c(c1)NC(=O)CN2c1nc(C)nc2c1CCC2" : 0.0004 to 0.026 µM
